A collection of compounds and their measured NF-kB SEAP reporter activity
system: RAW-Dual; assay: NF-kB SEAP reporter activity, fold change vs agonist alone; cytotoxicity flag (confluency mask): not cytotoxic; higher = enhanced NF-kB activity; details: agonist: Pam2CSK4 (TLR2/6) 0.1 ug/mL
The full ranking holds about 2,900 compounds; the median of “NF-kB SEAP reporter activity, fold change vs agonist alone” is about 0.99, and the highest 2% start at about 2.6. Shown is part of a subset that was picked to be rich in the highest values.

Below, each entry is followed by its recorded NF-kB SEAP reporter activity result.
O=C(OC1OC2COC(=O)c3cc(O)c(O)c(O)c3-c3c(cc(O)c(O)c3O)C(=O)OC(C2O)C1O)c1cc(O)c(O)c(O)c1 (stereo not drawn) (library stock concentration (final ~1000-fold dilution): 10 mM) | 0.809
COc1ccc(S(=O)(=O)N(C(C)=O)c2ccccc2/C=C/c2cc[n+]([O-])cc2)cc1 (library stock concentration (final ~1000-fold dilution): 10 mM) | 1.94

As a next step, examine the compound that follows.
Ask: // lookup NF-kB SEAP reporter activity for CCN(CC)CCOC(=O)C(Cc1cccc2ccccc12)CC1CCCO1.O=C(O)C(=O)O (stereo not drawn) (library stock concentration (final ~1000-fold dilution): 10 mM)
Reply: 0.761

* * *

tested on: RAW-Dual; assay: NF-kB SEAP reporter activity, fold change vs agonist alone; cytotoxicity flag (confluency mask): not cytotoxic; higher = enhanced NF-kB activity; settings: agonist: Pam2CSK4 (TLR2/6) 0.1 ug/mL
Whole data set: some 2,900 compounds, median “NF-kB SEAP reporter activity, fold change vs agonist alone” near 0.99, cut for the highest 2% near 2.6. Many of the other results were omitted from the sample, so the highest values are more common in it than they were.
# NF-kB SEAP reporter activity values compiled below
Form rule: numeric answer, no unit written next to it.

Solved entries:
CN1C2CCCC1CC(NC(=O)c1nn(C)c3ccccc13)C2.Cl (stereo unspecified) (library stock concentration (final ~1000-fold dilution): 10 mM water) | 1.04
CC(=O)OC1(C(C)=O)CCC2C3C=C(C)C4=CC(=O)CCC4(C)C3CCC21C (stereo unspecified) (library stock concentration (final ~1000-fold dilution): 10 mM) | 1.13
CC(Nc1ncnc(N)c1C#N)c1cc2cccc(-c3ccc(=O)n(C)c3)c2c(=O)n1C(C)C (stereo unspecified) (library stock concentration (final ~1000-fold dilution): 10 mM) | 1.22

Ask: Dear colleague, I am looking for the recorded NF-kB SEAP reporter activity of the following compound: Cc1cc(Cl)ccc1OCCCC(=O)NO (library stock concentration (final ~1000-fold dilution): 10 mM)
Reply: 0.939

Ask: What do you have for CC(Nc1ncnc2[nH]cnc12)c1cc2cccc(Cl)c2c(=O)n1-c1ccccc1 (stereo unspecified) (library stock concentration (final ~1000-fold dilution): 10 mM) ?
Reply: 0.665

Ask: Try this compound next: COC(C)Cn1c(=O)n(C)c2cnc3ccc(-c4cncc(C(C)(C)O)c4)cc3c21 (stereo unspecified) (library stock concentration (final ~1000-fold dilution): 10 mM)
Reply: 0.476

* * *

tested on: RAW-Dual; assay: NF-kB SEAP reporter activity, fold change vs agonist alone; cytotoxicity flag (confluency mask): cytotoxic (confluency <70% of control); higher = enhanced NF-kB activity; settings: agonist: Pam2CSK4 (TLR2/6) 0.1 ug/mL
In all, about 2,900 compounds were measured (“NF-kB SEAP reporter activity, fold change vs agonist alone”: median about 0.99, highest 2% from about 2.6 on). The sample holds the highest values, similar compounds and a random draw of the others, so the mix is not that of the screen.
observationType: NF-kB SEAP reporter activity
Write the number on its own, no unit after it.

Consider the worked cases shown below.
CCC1(O)C(=O)OCc2c1cc1n(c2=O)Cc2cc3cc(O)ccc3nc2-1 (stereo not drawn) (library stock concentration (final ~1000-fold dilution): 10 mM) | 1.03
O=C(Nc1ccc2[nH]nc(-c3ccc4[nH]ccc4c3)c2c1)c1c(Cl)cccc1Cl (library stock concentration (final ~1000-fold dilution): 10 mM) | 0.0858

Proceeding to the next compound to report its NF-kB SEAP reporter activity.
Ask: Provide value of NF-kB SEAP reporter activity for this record tested with RAW-Dual: CCS(=O)(=O)N1CCN(c2ccc(Nc3ncc(C(N)=O)c(NC4CC4)n3)cc2)CC1.Cl (library stock concentration (final ~1000-fold dilution): 10 mM)
Reply: 0.0746

* * *

test system: RAW-Dual; assay: NF-kB SEAP reporter activity, fold change vs agonist alone; cytotoxicity flag (confluency mask): not cytotoxic; higher = enhanced NF-kB activity; settings: agonist: LPS (TLR4) 0.1 ug/mL
Over roughly 2,900 compounds, “NF-kB SEAP reporter activity, fold change vs agonist alone” has its median near 0.99; the highest 2% begin near 2.6. Many of the other results were omitted from the sample, so the highest values are more common in it than they were.
observationType: NF-kB SEAP reporter activity
The reply should be a number, written without any unit.

Worked cases, answers included:
Cc1ccccc1C(OCCN(C)C)c1ccccc1.Cl (stereo not drawn) (library stock concentration (final ~1000-fold dilution): 10 mM) | 1.29
Nc1ccc(-c2cccc(C(=O)Nc3cnc4nc(N5CCOCC5)oc4c3)n2)cn1 (library stock concentration (final ~1000-fold dilution): 10 mM) | 1.43

Ask: Tell me the measured NF-kB SEAP reporter activity of Cn1ncc(Cl)c1-c1cc(C(=O)NC(CN)Cc2ccc(F)c(F)c2)oc1Cl (stereo not drawn) (library stock concentration (final ~1000-fold dilution): 10 mM) , please.
Reply: 1.03

* * *

system: RAW-Dual; assay: NF-kB SEAP reporter activity, fold change vs agonist alone; cytotoxicity flag (confluency mask): not cytotoxic; higher = enhanced NF-kB activity; conditions: agonist: Pam3CSK4 (TLR2/1) 0.1 ug/mL
In all, about 2,900 compounds were measured (“NF-kB SEAP reporter activity, fold change vs agonist alone”: median about 0.99, highest 2% from about 2.6 on). The sample holds the highest values, similar compounds and a random draw of the others, so the mix is not that of the screen.
Recorded NF-kB SEAP reporter activity by entry
Lab note: write the figure by itself, no unit.

Some compounds with recorded NF-kB SEAP reporter activity:
Fc1ccc2c(/C=C/c3nnn[nH]3)c[nH]c2c1 (library stock concentration (final ~1000-fold dilution): 10 mM) | 1.14
CC1CNCCCN1S(=O)(=O)c1cccc2cncc(F)c12.Cl.O.O (stereo not given) (library stock concentration (final ~1000-fold dilution): 10 mM) | 1.5
CNC(=O)C(NC(=O)C(CC(C)C)C(O)C(=O)NO)C(C)(C)C (stereo not given) (library stock concentration (final ~1000-fold dilution): 10 mM) | 1.01
COC1/C=C\C=C(/C)C(=O)NC2=CC(=O)C(NCCN(C)C)=C(CC(C)CC(OC)C(O)C(C)/C=C(\C)C1OC(N)=O)C2=O.Cl (stereo not given) (library stock concentration (final ~1000-fold dilution): 10 mM) | 0.199

Next compound, NF-kB SEAP reporter activity to be filled in.
Ask: Consider the compound shown here: COC(C)Cn1c(=O)n(C)c2cnc3ccc(-c4cncc(C(C)(C)O)c4)cc3c21 (stereo not given) (library stock concentration (final ~1000-fold dilution): 10 mM) What is its recorded NF-kB SEAP reporter activity?
Reply: 1.03

* * *

test system: RAW-Dual; assay: NF-kB SEAP reporter activity, fold change vs agonist alone; higher = enhanced NF-kB activity; settings: library stock concentration (final ~1000-fold dilution): 10 mM; cytotoxicity flag (confluency mask): not cytotoxic; agonist: MPLA (TLR4) […]
Whole data set: some 2,900 compounds, median “NF-kB SEAP reporter activity, fold change vs agonist alone” near 0.99, cut for the highest 2% near 2.6. The entries come from a sample that favours the highest values as a whole.
observationType: NF-kB SEAP reporter activity
Give your answer as a number; write no unit.

COc1cc2nccc(Oc3ccc(NC(=O)C4(C(=O)Nc5ccc(F)cc5)CC4)cc3)c2cc1OC.O=C(O)CC(O)C(=O)O | 0.939

Ask: For the molecule shown here, `O=C(Nc1ccc(O)c(C(=O)O)c1)c1cccc(NC(=O)c2ccco2)c1` , give the reported NF-kB SEAP reporter activity.
Reply: 0.969

Ask: // same read-out, input: `CN(C)Cc1ccc(S(=O)(=O)n2ccc(/C=C/C(=O)NO)c2)cc1`
Reply: 0.905

Ask: Same lookup for O=C(OCC1OC(OC(=O)c2cc(O)c(O)c(OC(=O)c3cc(O)c(O)c(O)c3)c2)C(OC(=O)c2cc(O)c(O)c(OC(=O)c3cc(O)c(O)c(O)c3)c2)C(OC(=O)c2cc(O)c(O)c(OC(=O)c3cc(O)c(O)c(O)c3)c2)C1OC(=O)c1cc(O)c(O)c(OC(=O)c2cc(O)c(O)c(O)c2)c1)c1cc(O)c(O)c(OC(=O)c2cc(O)c(O)c(O)c2)c1 (stereo not drawn) , please.
Reply: 0.319

Ask: Try this molecule too: CC1OC(OC2C(CO)OC(OC3C(CO)OC(O)C(O)C3O)C(O)C2O)C(O)C(O)C1NC1C=C(CO)C(O)C(O)C1O (stereo not drawn)
Reply: 0.951

Ask: Please do the same for `Cn1cc(-c2cc(Oc3cc(F)c(NC(=O)C4(C(=O)Nc5ccccc5)CC4)cc3F)ccn2)cn1` as well.
Reply: 1.71

Ask: Next entry: CC(=O)N1c2ccc(-c3ccc(C(=O)O)cc3)cc2C(Nc2ccc(Cl)cc2)CC1C (stereo not drawn)
Reply: 2.37

Ask: Same again, this time with Cl.Cl.OC(CN1CCN(c2cccc(Cl)c2)CC1)C(c1ccccc1)c1ccccc1 (stereo not drawn)
Reply: 1.04
